Reference for the values: PubChem BioAssay AID2060894

# Tested on: K12877-001-R-J1-PDC complex spheroid viability
# experimentalDetails: Anticancer human tumor K12877-001-R-J1-PDC patient-derived lung adenocarcinoma cell line growth inhibition [RAS]
# assayConditions: second compound 0.03 µM; first compound 0.01 µM; active compounds read low
Give viability, T/C for every item shown.

# value lookup — system K12877-001-R-J1-PDC complex spheroid viability, readout viability, T/C, item CCN1CCN(Cc2ccc(Nc3ncc(F)c(-c4cc(F)c5nc(C)n(C(C)C)c5c4)n3)nc2)CC1 + CCn1c(-c2cccnc2C(C)OC)c2c3cc(ccc31)N1CCOC(CC(NC(=O)C(C(C)C)N(C)C(=O)C3(F)CCN(C(=O)C#CC(C)(C)N(C)C)CC3)C(=O)N3CCCC(N3)C(=O)OCC(C)(C)C2)C1
76.5%

# value lookup — system K12877-001-R-J1-PDC complex spheroid viability, readout viability, T/C, item Nc1ccn(C2OC(CO)C(O)C2(F)F)c(=O)n1 (stereo unspecified) + CCn1c(-c2cc(N3CCN(C)CC3)cnc2C(C)OC)c2c3cc(ccc31)-c1csc(n1)CC(NC(=O)C1CC1C)C(=O)N1CCCC(N1)C(=O)OCC(C)(C)C2
86.8%

# value lookup — system K12877-001-R-J1-PDC complex spheroid viability, readout viability, T/C, item O=C(c1ccc(F)c(F)c1Nc1ccc(I)cc1F)N1CC(O)([C@@H]2CCCCN2)C1 + CCn1c(-c2cc(N3CCN(C)CC3)cnc2C(C)OC)c2c3cc(ccc31)-c1csc(n1)CC(NC(=O)C1CC1C)C(=O)N1CCCC(N1)C(=O)OCC(C)(C)C2
105%

# value lookup — system K12877-001-R-J1-PDC complex spheroid viability, readout viability, T/C, item CCN1CCN(Cc2ccc(Nc3ncc(F)c(-c4cc(F)c5nc(C)n(C(C)C)c5c4)n3)nc2)CC1 + CCn1c(-c2cc(N3CCN(C)CC3)cnc2C(C)OC)c2c3cc(ccc31)-c1csc(n1)CC(NC(=O)C1CC1C)C(=O)N1CCCC(N1)C(=O)OCC(C)(C)C2
86.8%

# value lookup — system K12877-001-R-J1-PDC complex spheroid viability, readout viability, T/C, item CC(C)n1nc(-c2ccc3oc(N)nc3c2)c2c(N)ncnc21 + CCn1c(-c2cccnc2C(C)OC)c2c3cc(ccc31)N1CCOC(CC(NC(=O)C(C(C)C)N(C)C(=O)C3(F)CCN(C(=O)C#CC(C)(C)N(C)C)CC3)C(=O)N3CCCC(N3)C(=O)OCC(C)(C)C2)C1
44%

# value lookup — system K12877-001-R-J1-PDC complex spheroid viability, readout viability, T/C, item C=CC(=O)N1CCN(c2nc(OCC3CCCN3C)nc3c(F)c(-c4nc(N)cc(C)c4C(F)(F)F)c(Cl)cc23)C(C)C1 (stereo unspecified) + CCn1c(-c2cccnc2C(C)OC)c2c3cc(ccc31)N1CCOC(CC(NC(=O)C(C(C)C)N(C)C(=O)C3(F)CCN(C(=O)C#CC(C)(C)N(C)C)CC3)C(=O)N3CCCC(N3)C(=O)OCC(C)(C)C2)C1
76.1%

====

# System: K12877-001-R-J1-PDC complex spheroid viability
# experimentalDetails: Anticancer human tumor K12877-001-R-J1-PDC cell line growth inhibition [RAS];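 further: tumour cells co-cultured with HUVEC and mesenchymal stem cells in spheroids; spheroids exposed to agents for one week before readout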
# assayConditions: second compound 0.1 µM; first compound 0.01 µM; active compounds read low
# Description: RAS pathway inhibitors in Combinations in Complex Spheroids A high-throughput screen of multi-cell type tumor spheroids was designed to identify active combinations of RAS pathway inhibitors and targeted small molecules. Complex spheroids include a stromal component modeled by human endothelial cells (HUVEC) and fibroblasts modeled by human mesenchymal stem cells (MSCs). […] Compounds. […] If the clinical Cmax for an agent had not been determined, the highest concentration tested was 10 microM. […]
Give viability, T/C for every item shown.
Numbers only; they are read as %.

# value lookup — system K12877-001-R-J1-PDC complex spheroid viability, readout viability, T/C, item C=CC(=O)N1CCN(c2nc(OCC3CCCN3C)nc3c(F)c(-c4nc(N)cc(C)c4C(F)(F)F)c(Cl)cc23)C(C)C1 (stereo unspecified) + C#Cc1c(F)ccc2cc(O)cc(-c3ncc4c(N5CC6CCC(C5)N6)nc(OCC56CCCN5CC(F)C6)nc4c3F)c12
84.5

# value lookup — system K12877-001-R-J1-PDC complex spheroid viability, readout viability, T/C, item Nc1ccn(C2OC(CO)C(O)C2(F)F)c(=O)n1 (stereo unspecified) + C#Cc1c(F)ccc2cc(O)cc(-c3ncc4c(N5CC6CCC(C5)N6)nc(OCC56CCCN5CC(F)C6)nc4c3F)c12
85.9

# value lookup — system K12877-001-R-J1-PDC complex spheroid viability, readout viability, T/C, item CCN1CCN(Cc2ccc(Nc3ncc(F)c(-c4cc(F)c5nc(C)n(C(C)C)c5c4)n3)nc2)CC1 + C=CC(=O)N1CCN(c2nc(OCC3CCCN3C)nc3c(F)c(-c4nc(N)cc(C)c4C(F)(F)F)c(Cl)cc23)C(C)C1
84.5

# value lookup — system K12877-001-R-J1-PDC complex spheroid viability, readout viability, T/C, item CC(C)n1nc(-c2ccc3oc(N)nc3c2)c2c(N)ncnc21 + C=CC(=O)N1CCN(c2nc(OCC3CCCN3C)nc3c(F)c(-c4nc(N)cc(C)c4C(F)(F)F)c(Cl)cc23)C(C)C1
65.5

# value lookup — system K12877-001-R-J1-PDC complex spheroid viability, readout viability, T/C, item C=CC(=O)Nc1cc(Nc2nccc(-c3cn(C)c4ccccc34)n2)c(OC)cc1N(C)CCN(C)C + C#Cc1c(F)ccc2cc(O)cc(-c3ncc4c(N5CC6CCC(C5)N6)nc(OCC56CCCN5CC(F)C6)nc4c3F)c12
102

# value lookup — system K12877-001-R-J1-PDC complex spheroid viability, readout viability, T/C, item CCN1CCN(Cc2ccc(Nc3ncc(F)c(-c4cc(F)c5nc(C)n(C(C)C)c5c4)n3)nc2)CC1 + C#Cc1c(F)ccc2cc(O)cc(-c3ncc4c(N5CC6CCC(C5)N6)nc(OCC56CCCN5CC(F)C6)nc4c3F)c12
102
